Data provenance: ChEMBL document CHEMBL6103573

system: HCT-116; experiment: Antiproliferative activity against human HCT-116 cells assessed as inhibition of cell proliferation incubated for 48 hrs by MTT assay; format: functional, cell-based; settings: HCT-116, 48 h
pIC50: −log10 of the molar value.
measure: pIC50

Field: example entries. Status: answers known.
- smiles input: "CN(c1ccc2c(ccn2C)c1)c1ncnc2sccc12"
  pIC50: 8.29
- smiles input: "CN(c1ccc2c(ccn2C)c1)c1nc(N2CCCCC2)nc2sccc12"
  pIC50: 7.74

I: CN(c1ccc2c(ccn2C)c1)c1nc(N2CCC(F)CC2)nc2sccc12
II: CN(c1ccc2c(ccn2C)c1)c1nc(N2CCOCC2)nc2sccc12
Lower value for measured pIC50? Options: I , II // output: label of the selected item
II
